meta.source: PubChem BioAssay

# assayComment: OD615 S. cerevisiae growth inhibition, permissive medium, pilot counter-assay, permissive growth control for S. cerevisiae lifespan shortening project (AID 705)
# condition: OD615, 24 h, at 10 µM, hits give high values
growth inhibition listing for selected compounds.
Lab book: enter the figure in %, no units written.

Examples from the recorded data:
INSERT INTO results (compound, readoutvalue) VALUES
  ('COc1ccc(-c2nc(C#N)c(NCCN(C)C)o2)cc1', -5.38),
  ('COc1ccccc1NC(=O)CSc1nnc(-c2ccccc2)o1', -16);

input: Entry COCCNC(=O)CS(=O)Cc1nc(-c2ccc(Cl)cc2)oc1C (stereo unspecified) has what growth inhibition?
output: -6.59

input: Look up growth inhibition for this compound: Cc1cc2oc(C(=O)NCc3ccncc3)c(C)c2cc1C
output: -3.59

###

# assayComment: inhibitors of the yeast RAM network, pilot screen, dse1pr::URA3 reporter, 5-FOA selection (AID 869);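 further: 0% = DMSO wells with no growth and 100% = 10 µM 1-NA-PP1 with full growth; RAM network block rescues cells from 5-FOA so hits raise OD615 growth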
# condition: S. cerevisiae dse1pr::URA3 5-FOA growth, OD615, 2 d; at 10 µM; hits give high values; strain carries analog-sensitive mutant Cbk1 kinase
Entries and their inhibition values follow.
Report the value in % with no unit label.

INSERT INTO results (molecule, readoutvalue) VALUES
  ('Cc1ccc(OCC(=O)n2nc(C)cc2C)c(Br)c1', 0.89),
  ('Brc1cccc(-c2nnc3sc(CNC4CCCC4)cn23)c1', 1.56),
  ('CC1(C)Cc2c(C#N)c(NCCCO)nc(-c3ccccc3)c2CO1', 0.25),
  ('O=C(O)CCCNS(=O)(=O)c1ccc(F)cc1', 1.14),
  ('Cc1nc(-c2ccc3c(c2)OCO3)cs1', 1.68),
  ('COC(=O)c1nc(NC(=O)C(C)(C)C)n[nH]1', 2.06),
  ('Clc1ccc(NCn2cncn2)nc1', 2.67),
  ('CCN(CC)S(=O)(=O)c1cccc(-c2nnc(SCc3nnc(-c4cccs4)o3)n2N)c1', 1.85),
  ('CC1CCc2nn(CC(=O)Nc3c(F)cc(F)cc3Br)cc2C1 (centres undefined)', 1.84),
  ('COc1ccc(N2Cc3cccc(C(=O)N4CCN(C(=O)c5ccco5)CC4)c3C2=O)cc1', 2.62);

Okay, now this molecule:
input: Entry O=C(C1CCCN1S(=O)(=O)c1cccc2cccnc12)N1CCc2ccccc2C1 (centres undefined) : reported inhibition = ?
output: 0.745

###

Measured growth inhibition of individual entries
# assayComment: OD615 S. cerevisiae growth inhibition, permissive medium, pilot counter-assay, permissive growth control for S. cerevisiae lifespan shortening project (AID 705)
# condition: OD615, 24 h, at 10 µM, hits give high values
Use % as the unit, but write only the number.

INSERT INTO results (compound, readoutvalue) VALUES
  ('Cc1ccc(C2/C(=C(/O)c3ccc(Cl)cc3)C(=O)C(=O)N2CC2CCCO2)o1 (stereo not given)', -7.4),
  ('O=c1cc(-c2ccccc2Cl)c2c([nH]1)CCC2', -9.7),
  ('O=C(C1COc2ccccc2O1)N1CCn2c(nc3ccccc32)C1 (stereo not given)', -13.1),
  ('CCOC(=O)C1=C2N(C)c3ccccc3N2CCC1=O', 8.71);

Now look at this entry.
input: Item COc1cccc(CNC(=O)CCS(=O)(=O)c2cccc3nonc23)c1 has what recorded growth inhibition?
output: -13.5

###

Reported viability increase values are given for each entry in this list.
# assayComment: viability gain of MRP-1-high H69AR cells under doxorubicin, pilot screen, MRP-1 activator project, CellTiter-Glo, duplicate (AID 807);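 further: compound pretreatment 18-22 h then 72 h combined with doxorubicin; 0% = doxorubicin alone and 100% = vehicle without doxorubicin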
# condition: H69AR viability with doxorubicin, CellTiter-Glo luminescence; at 10 µM; hits give high values
Give a bare numeral; the unit % is implied.

INSERT INTO results (compound, readoutvalue) VALUES
  ('COc1ccc(NC(=O)[C@H](CCS(C)(=O)=O)N2Cc3ccccc3C2=O)c(OC)c1', 0.69),
  ('CC1CCCCN1S(=O)(=O)c1coc(C(N)=O)c1 (stereo not given)', -2.18),
  ('COc1cc(NC(=O)C2CCC(CNc3c(N4CCCCC4)c(=O)c3=O)CC2)cc(OC)c1 (stereo not given)', -0.71),
  ('CCCCOC(=O)Nc1sc2c(c1C(=O)OC)CCC2', -2.72);

input: Which viability increase reading was recorded for the compound CCOC(=O)N1CCc2c(sc(NC(C)=O)c2C(N)=O)C1 ?
output: -1.9

input: Which value of viability increase has been reported for CC(C)c1cc(N2CCN(C(=O)c3ccco3)CC2)n2c(nc3ccccc32)c1C#N in the records?
output: -5.67

input: Recorded viability increase for N#CCCN1CCN(S(=O)(=O)c2ccc(S(=O)(=O)NCc3ccccc3)cc2)CC1 , please?
output: 0.18

###

# assayComment: Restrictive medium S. cerevisiae growth inhibition, OD615, pilot screen of yeast lifespan reduction project, restrictive growth control (AID 706);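 further: modified DeaD lifespan yeast strain shifted to restrictive glucose medium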
# condition: OD615, 48 h, at 10 µM, hits give high values
assayReadout: growth inhibition (%)
Please state the figure in %; there is no need to write the unit.

See these solved cases before continuing.
INSERT INTO assay_data (smilesinput, readoutvalue) VALUES
  ('c1ccc2c(c1)CCN(CCCNc1nc3ccccc3n3cnnc13)C2', -12.9),
  ('Fc1cc(Br)ccc1Nc1nc2ccccc2n2nnnc12', -15),
  ('CCn1c(CNC(=O)COC)nc2ccccc21', 0.165);

Continue with the next molecule.
input: I am curious: what growth inhibition value has been reported for Cc1cnn(-c2ccc3nnc(-c4ccc(Br)cc4)n3n2)c1 ?
output: -11.2

###

# assayComment: inhibitors of the yeast RAM network, pilot screen, dse1pr::URA3 reporter, 5-FOA selection (AID 869);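 further: 0% = DMSO wells with no growth and 100% = 10 µM 1-NA-PP1 with full growth; RAM network block rescues cells from 5-FOA so hits raise OD615 growth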
# condition: S. cerevisiae dse1pr::URA3 5-FOA growth, OD615, 2 d; at 10 µM; hits give high values; strain carries analog-sensitive mutant Cbk1 kinase
assayReadout: inhibition (%)
Return type: number; implicit unit %.

INSERT INTO results (molecule, assayreadout, unitabbrev, readoutvalue) VALUES
  ('CCOC(=O)CCCSc1nc2sc(C)c(C)c2c(=O)[nH]1', 'inhibition', '%', 3.01),
  ('CCCC(=O)NCCc1cc2ccc(C)c(C)c2[nH]c1=O', 'inhibition', '%', 1.91),
  ('Cc1ccc(CCN2C(=O)CCC2(C)C(=O)NC2CCCC2)cc1 (stereo unspecified)', 'inhibition', '%', 1.19),
  ('CC(CCc1ccccc1)NC(=O)C1CCN(c2nnc(-n3cccc3)s2)CC1 (stereo unspecified)', 'inhibition', '%', 4.55);

input: // inhibition lookup, key: COC(=O)c1sc2ccccc2c1N
output: 0.515

input: # query: inhibition of entry CCOC(=O)c1ccc(N2CSC3=C(C#N)C(c4ccc(OC)cc4OC)CC(=O)N3C2)cc1 (stereo unspecified)
output: 2.44

input: inhibition for CS(=O)(=O)c1ccc(C(=O)NC2CCOC2=O)cc1 (stereo unspecified) ?
output: -0.295

input: Can you share its inhibition? I mean this molecule: COC(=O)CCSCC(=O)Nc1nnc(C)s1
output: 3.05

input: Any idea what its inhibition is? The molecule is CC1CCc2c(sc3ncnc(NCCN4CCOCC4)c23)C1 (stereo unspecified)
output: 1.02

input: Fill in the blank: the reported inhibition of CN(CCc1ccccn1)C(=O)Nc1ccc(F)cc1 is ____.
output: 0.71

input: Tell me the measured inhibition of CSC(=NS(=O)(=O)c1ccc(C)cc1)SC , please.
output: 2.02

input: Request the reported inhibition associated with Cc1nc2c(c(C)nn2-c2ccccc2)c(C)c1Cl
output: 3.09

input: Consider the molecule shown here: O=C(C1CCN(c2ncnc3c2sc2cccc(F)c23)CC1)N1CCOCC1 What is its recorded inhibition?
output: 3.08

input: Data request, read-out inhibition, for O=C(CCCC(=O)n1cnc2ccccc21)n1cnc2ccccc21
output: 1.08

input: Could you share which inhibition value was measured for CC(C)CCn1c(SCC(N)=O)nc2c1c(=O)n(C)c(=O)n2C ?
output: -0.76

input: Could you tell me which inhibition is on file for O=C(CSc1nnc(Cn2c(=O)sc3ccccc32)n1-c1ccccc1)NCc1ccco1 ?
output: 1.22

###

# assayComment: growth suppression of beta-catenin knockout HCT116, pilot screen, human colon tumor cells (AID 823);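 further: 0% = wells killed by 20 µM Hyamine and 100% = untreated DMSO cell wells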
# condition: CellTiter-Glo, 60 h, at 10 µM, hits give low values
Results filed as inconclusive are left out.
// reported viability for each item listed
Your answer is read as %, so omit the unit and give the number.

// worked examples, viability included
INSERT INTO assay_data (smilesinput, assayreadout, unitabbrev, readoutvalue) VALUES
  ('Cc1ccc(C(C)C)c(OCC(=O)N2CCOCC2)c1', 'viability', '%', 99.3),
  ('COc1ccc(-c2nnc(SCC(=O)NC3CCCCC3)o2)cc1OC', 'viability', '%', 98.5),
  ('Cc1ccsc1-c1nc(CSCC(=O)N2CCN(c3ccccc3)CC2)c(C)o1', 'viability', '%', 61.6);

Now take the following molecule into account.
input: I would be grateful if you could share the reported viability for O=C(Cn1cnc2c(cnn2-c2ccc(Cl)cc2)c1=O)NC1CCCCC1 .
output: 91.3
